Biological target: T1, rhesus ERBB3 on transiently transfected HEK-293 cells (rhesus monkey (Macaca mulatta), UniProt P21860 20-1342 (human entry))
T1 construct: also called rhesus ERBB3+ HEK-293 cells
T1 chain: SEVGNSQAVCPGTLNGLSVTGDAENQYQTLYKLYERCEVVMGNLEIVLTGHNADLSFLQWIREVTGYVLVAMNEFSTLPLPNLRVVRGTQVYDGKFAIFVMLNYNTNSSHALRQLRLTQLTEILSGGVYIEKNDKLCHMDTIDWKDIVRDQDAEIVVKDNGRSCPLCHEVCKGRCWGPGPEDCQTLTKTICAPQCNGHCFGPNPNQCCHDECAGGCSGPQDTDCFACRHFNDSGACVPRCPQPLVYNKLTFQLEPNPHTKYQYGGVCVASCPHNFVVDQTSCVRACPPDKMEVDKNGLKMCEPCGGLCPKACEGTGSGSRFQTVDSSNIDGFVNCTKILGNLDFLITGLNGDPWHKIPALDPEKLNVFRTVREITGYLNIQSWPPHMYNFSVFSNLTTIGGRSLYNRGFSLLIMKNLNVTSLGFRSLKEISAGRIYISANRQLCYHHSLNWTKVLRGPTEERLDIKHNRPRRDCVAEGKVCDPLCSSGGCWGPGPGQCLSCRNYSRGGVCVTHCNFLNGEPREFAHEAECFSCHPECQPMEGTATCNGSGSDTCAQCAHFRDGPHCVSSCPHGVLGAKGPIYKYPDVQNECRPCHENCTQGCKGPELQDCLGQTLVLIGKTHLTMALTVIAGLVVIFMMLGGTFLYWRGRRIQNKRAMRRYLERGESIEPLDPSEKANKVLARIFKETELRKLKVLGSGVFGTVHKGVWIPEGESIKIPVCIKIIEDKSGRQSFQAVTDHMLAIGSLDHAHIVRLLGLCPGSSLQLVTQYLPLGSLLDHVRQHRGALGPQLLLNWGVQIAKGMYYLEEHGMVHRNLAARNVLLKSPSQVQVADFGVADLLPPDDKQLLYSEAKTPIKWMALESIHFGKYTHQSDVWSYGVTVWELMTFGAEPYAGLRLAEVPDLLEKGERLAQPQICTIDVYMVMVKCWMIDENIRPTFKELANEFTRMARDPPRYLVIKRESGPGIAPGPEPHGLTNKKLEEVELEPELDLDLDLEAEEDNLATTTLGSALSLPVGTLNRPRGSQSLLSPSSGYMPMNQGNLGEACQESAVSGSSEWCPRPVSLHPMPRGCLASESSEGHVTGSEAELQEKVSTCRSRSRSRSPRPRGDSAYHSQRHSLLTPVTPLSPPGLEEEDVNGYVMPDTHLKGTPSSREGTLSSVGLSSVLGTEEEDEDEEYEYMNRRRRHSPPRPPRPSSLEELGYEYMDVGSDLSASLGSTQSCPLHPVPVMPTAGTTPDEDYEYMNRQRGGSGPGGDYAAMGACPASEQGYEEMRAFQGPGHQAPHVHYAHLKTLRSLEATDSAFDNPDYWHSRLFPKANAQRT
Assay: flow cytometry, rhesus ERBB3-transfected HEK-293 cells, IgG1 titrated
OBSERVATION_TYPE: binding result

BINDER: 15G11-DI7 IgG1 (antibody, V domains shown, Human IgG1 format, human Ckappa; also called 15G11-D17) VH: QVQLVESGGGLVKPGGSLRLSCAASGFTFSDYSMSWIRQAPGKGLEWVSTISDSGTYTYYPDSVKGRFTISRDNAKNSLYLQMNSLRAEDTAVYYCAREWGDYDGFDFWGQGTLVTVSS VL: DIQMTQSPSSLSASVGDRVTITCRASQEISSYLSWYQQKPGKAPKLLIYAASSLDTGVPSRFSGSGSGTDFTLTISSLQPEDFATYYCLQYDSSPYTFGGGTKVEIK
OBSERVED: binds
--
BINDER: 15G11-DI2 IgG1 (antibody, V domains shown, Human IgG1 format, human Ckappa) VH: QVQLVESGGGLVKPGGSLRLSCAASGFTFSDYGMSWVRQAPGKGLEWVSTISDSGSYTYYPDSVKGRFTISRDNAKNSLYLQMNSLRAEDTAVYYCARELGDYDGFDYWGQGTLVTVSS VL: DIQMTQSPSSLSASVGDRVTITCRASQEISTYLSWYQQKPGKAPKLLIYAASSLDTGVPSRFSGSGSGTDFTLTISSLQPEDFATYYCLQYDSTPYTFGGGTKVEIK
OBSERVED: binds
